System: MOLT-4 leukemia
protocolDescription: NCI tumour cell line growth inhibition, 48 h
Answer each item with its documented TGI.

q: What measured TGI goes with "CC1(C)CCC[C@]2(C)c3cc(O)ccc3CC[C@@H]12" ?
a: 67.3 µM

q: Which TGI value is on record for "O=S(=O)(O)c1cc(Nc2ccnc3ccccc23)c2c(S(=O)(=O)O)cc(S(=O)(=O)O)cc2c1" ?
a: > 100 µM

q: I would be grateful if you could share the reported TGI for CCC(=O)C(C)C(=O)C(=O)C(=O)OC (centres undefined) .
a: > 91.5 µM

q: Record request: TGI value, item "COc1c(-c2cccs2)oc2c(CC(=O)O)cccc2c1=O"
a: > 100 µM

q: Tell me the measured TGI of "COc1cc(O)c2c(=O)c(OC)c(-c3ccc4c(c3)OCO4)oc2c1OC" , please.
a: > 50 µM

q: Give its TGI value. Item: "CCn1c2ccc(C(=O)CCCN(C)C)cc2c2cc(C(=O)CCCN(C)C)ccc21"
a: > 100 µM

q: Name the recorded TGI for "CCNc1cc2c3c(c1)CCCN3CCC2" .
a: 50.6 µM

q: For the compound O=C1C2=C(CCCCC2)C2CCCCC12O (centres undefined) , what TGI is on record?
a: > 100 µM

q: Requested read-out: TGI. Entry: "c1cncc(-c2nc3ccccc3s2)c1"
a: > 100 µM

----------
Tested on: NCI-H522 lung
protocolDescription: NCI tumour cell line growth inhibition, 48 h
observable: TGI

q: Missing value: TGI, NCI-H522 lung, entry "c1ccc(CCN2CCN=C2Cc2ccccc2)cc1" . Fill in?
a: > 100 µM

q: Field: TGI (NCI-H522 lung). Entry: "C[C@]1(C(=O)O)N[C@H](C(=O)O)CS1"
a: > 1000 µM

q: Lab note: need TGI for "N#Cc1ccc(Nc2cnc3ccc(N)cc3n2)cc1" on NCI-H522 lung, anyone have it?
a: > 100 µM

----------
Would you mind telling me the reported TGI of each entry?
Test system: 786-0 renal
protocolDescription: NCI tumour cell line growth inhibition, 48 h
Where a SMILES comes first, the peptide text is derived from it. [ ]: non-standard residue; d: D form. pGlu = O=C1CC[CH](C(=O)O)N1

q: Requested read-out: TGI. Entry: O=C(Nc1ccc2[nH]c(C(=O)N3CC(CCl)c4c3cc([N+](=O)[O-])c3ccccc43)cc2c1)c1cc2ccccc2o1 (stereo unspecified)
a: > 1100 µM

q: TGI for "N#C/C(=C\Nc1ccccn1)C(=O)c1ccco1" ?
a: > 100 µM

q: Which measured TGI value corresponds to "COc1c(-c2cccs2)oc2c(CC(=O)O)cccc2c1=O" ?
a: > 100 µM

q: Param item = CCOC(=O)C1=CC(C)(C(=O)OCC)Nc2c(nc(SC)n(C)c2=O)N1 (stereo unspecified) ; retrieve measured TGI.
a: > 10 µM

q: Name the reported TGI value associated with the compound CC(=O)NC(C)c1ccc(N=NN2CCCC2)cc1 (stereo unspecified)
a: > 100 µM

q: I am curious: what TGI value has been reported for CC(NC(=O)C(Cc1cnc[nH]1)NC(=O)C1CCC(=O)N1)C(N)=O (stereo not drawn) ([pGlu]-His-Ala-NH2; configuration not given here) ?
a: > 100 µM
